System: Spodoptera litura
Assay: Insecticidal effect for Spodoptera litura by immersion treatment of host crop root (Test Example 4)
Type: in vivo
Details: 25 ppm; soybean root immersion 5 days; second-instar larvae of Spodoptera litura; fifth day after
Procedure: Insecticidal Effect for Spodoptera litura by Immersion Treatment of Host Crop Root Roots of primary leaves developing stage soybean was washed with tap water to remove soil, and then immersed in a pesticidal solution which was prepared by dissolving 5 mg of test compound (represented by the compound Nos. in the above Examples) in 0.5 ml of acetone containing Tween 20 ([…]) with ion-exchange water, and which was filled in a light-shielded Erlenmeyer flask (100 ml). […]

COMPOUND	TGT	rate of dead pests (%)
COC(=O)N1CN(C(=O)c2c(F)cccc2F)C(=O)N(c2cc(Cl)c(F)c(Cl)c2F)C1 [III-61]	Spodoptera litura	100%
O=C(c1c(F)cccc1Cl)N1COCN(c2ccc(S(=O)(=O)C(F)(F)C(F)(F)F)cc2F)C1=O [I-307]	Spodoptera litura	90%
COC(=O)C(=O)N1CN(C(=O)c2c(F)cccc2F)C(=O)N(c2ccc(SC(F)(F)C(F)Cl)cc2F)C1 (centres unmarked) [III-79]	Spodoptera litura	100%
O=C(c1c(F)cccc1F)N1CSCN(CC(F)(F)F)C1=O [II-64]	Spodoptera litura	95%
O=C(c1c(F)cccc1F)N1COCN(c2ccc([S+]([O-])C(F)(F)F)cc2)C1=O (centres unmarked) [I-26]	Spodoptera litura	100%
CONC(=O)C(=O)N1CN(C(=O)c2c(F)cccc2F)C(=O)N(c2ccc(Oc3ccc(C(F)(F)F)cc3Cl)cc2F)C1 [III-49]	Spodoptera litura	95%
O=C(c1c(F)cccc1Cl)N1COCN(c2cc(F)c([S+]([O-])C(F)(F)F)cc2F)C1=O (centres unmarked) [I-288]	Spodoptera litura	100%
O=C(c1c(F)cccc1Cl)N1COCN(c2cc(Cl)c(SC(F)(F)F)cc2F)C1=O [I-275]	Spodoptera litura	100%

----------
Catalogue of rate of dead pests (%) values
System: Spodoptera litura
Assay: Insecticidal effect for Spodoptera litura by immersion treatment of host crop root (Test Example 4)
Assay type: in vivo
Settings: 25 ppm; soybean root immersion 5 days; second-instar larvae of Spodoptera litura; fifth day after
Description: Insecticidal Effect for Spodoptera litura by Immersion Treatment of Host Crop Root Roots of primary leaves developing stage soybean was washed with tap water to remove soil, and then immersed in a pesticidal solution which was prepared by dissolving 5 mg of test compound (represented by the compound Nos. in the above Examples) in 0.5 ml of acetone containing Tween 20 ([…]) with ion-exchange water, and which was filled in a light-shielded Erlenmeyer flask (100 ml). […]

COMPOUND	rate of dead pests (%)
O=C(c1c(F)cccc1F)N1C[S+]([O-])CN(c2cc(Cl)c(F)c(Cl)c2F)C1=O (centres unmarked)	100
C[S+]([O-])c1ccc(N2COCN(C(=O)c3c(F)cccc3F)C2=O)c(F)c1 (centres unmarked)	100
C[S+]([O-])c1cc(F)c(N2COCN(C(=O)c3c(F)cccc3F)C2=O)c(F)c1 (centres unmarked)	90
CC(C)Sc1ccc(N2COCN(C(=O)c3c(F)cccc3F)C2=O)c(F)c1	100
Cc1c(N2COCN(C(=O)c3c(F)cccc3F)C2=O)ccc(SC(F)(F)F)c1Cl	95
Cc1cc(N2COCN(C(=O)c3c(F)cccc3F)C2=O)ccc1SC(F)(F)F	90
O=C(c1c(F)cccc1Cl)N1COCN(c2ccc([S+]([O-])C(F)(F)C(F)(F)F)cc2F)C1=O (centres unmarked)	100
O=C(c1c(F)cccc1F)N1CNCN(c2ccc([S+]([O-])C(F)(F)C(F)Cl)cc2F)C1=O (centres unmarked)	95
CSc1ccc(N2COCN(C(=O)c3c(F)cccc3Cl)C2=O)c(F)c1	100
CCSc1ccc(N2COCN(C(=O)c3c(F)cccc3F)C2=O)c(F)c1	100
O=C(c1c(F)cccc1Cl)N1COCN(c2ccc([S+]([O-])C(F)(F)F)c(Cl)c2)C1=O (centres unmarked)	100
COC(=O)C(=O)N1CN(C(=O)c2c(F)cccc2F)C(=O)N(c2cc(Cl)c(F)c(Cl)c2F)C1	90
O=C(c1c(F)cccc1F)N1COCN(c2ccc([S+]([O-])C(F)(F)C(F)Cl)cc2Cl)C1=O (centres unmarked)	100
O=C(c1c(F)cccc1F)N1CN=CN(c2ccc(Cl)cc2)C1=O	100
O=C(c1c(F)cccc1F)N1COCN(c2ccc([S+]([O-])C(F)(F)C(F)F)cc2F)C1=O (centres unmarked)	100
CC(=O)N1CN(C(=O)c2c(F)cccc2F)C(=O)N(c2ccc(SC(F)F)cc2F)C1	100
O=C(c1c(F)cccc1Cl)N1COCN(c2ccc([S+]([O-])C(F)(F)F)cc2F)C1=O (centres unmarked)	100
